Listed next: entries and their corresponding activity change, negative = activation.
- Tested on: intestinal alkaline phosphatase [Mus musculus]
- assaySummary: mouse intestinal phosphatase enzyme activation – biochemical, luminescence, single concentration, confirmation (AID 434970)
- setupConditions: purified mouse IAP, CDP-Star luminescence, 30 min, at 10 µM; stronger effect = lower value
Out of some 11,000 compounds screened, about 310 (2.8%) were called active. Many of the other results were omitted from the sample, so actives are more common in it than they were.
Number in %, nothing else.

Recorded activity change, negative = activation, per entry:
>>> df
                                   molecule                        quantitymeasured  observed
0  CC(=O)c1cccc(NC(=O)NC2CC3CCCC(C2)N3CC(C)C)c1 (configuration not stated)  activity change, negative = activation     -21.6
1  O=C(O)[C@H]1CC=C[C@H]2CCN(Cc3ccc(Cl)c(Cl)c3)C(=O)[C@@H]12  activity change, negative = activation     -5.25
2  CCOc1ccc(NC(=O)CC(c2ccccc2)c2ccc(F)cc2)cc1 (configuration not stated)  activity change, negative = activation     -43.6

Ask: For the molecule Cc1ccc(NC(=O)CNc2ccc(OC(C)C)cc2)cc1 , what activity change, negative = activation is on record?
Result: 10

Ask: Next molecule: Cc1ccc(-c2nn3c(C)nnc3s2)cc1NC(=O)c1ccc(-c2cccc(Cl)c2)o1
Result: 15.2

Ask: Next molecule: COc1ccccc1C(CC(=O)Nc1ccc(Cl)cc1)c1ccc(OC(C)C)cc1 (configuration not stated)
Result: -90.9

Ask: Next molecule: CCSc1cc(C2C(C(=O)OC)=C(C)NC3=C2C(=O)CCC3)c(C)o1 (configuration not stated)
Result: 4.65

Ask: Next molecule: CCOC(=O)c1[nH]c(C)c(CN(CCc2ccccc2)C(=O)CCC(=O)O)c1C
Result: 2.3

Ask: Next molecule: CCCCN1CC[C@@H]2C=CC[C@H](C(=O)OC)[C@@H]2C1=O
Result: 4.85

Ask: Next molecule: O=C(Nc1cccc(F)c1)C1CC(=O)N(c2ccc(Cl)cc2)C1 (configuration not stated)
Result: -7.45

Ask: Next molecule: CCS(=O)(=O)n1nc(-c2ccccc2)nc1N
Result: 7.4

Ask: Next molecule: CCc1nc2sc3c(c2c(=O)n1N)CCC3
Result: 8.65

Ask: Next molecule: CCc1ccccc1NC(=S)NC1CC2CCCC(C1)N2Cc1cccs1 (configuration not stated)
Result: -0.9

Ask: Next molecule: S=C(Nc1ccc(Cl)c(Cl)c1)NC1CCN(Cc2ccccc2)CC1
Result: -62.7

Ask: Next molecule: Cc1ccc(NCc2nnc(SCC(N)=O)n2CC2CCCO2)c(C)c1 (configuration not stated)
Result: -9.4

Ask: Next molecule: O=C(Nc1ccc2c(c1)N(Cc1ccccc1)C(=O)c1ccccc1S2)NC1CC1
Result: -145

Ask: Next molecule: O=C(Nc1cccc(-c2cccc(Cl)c2)c1)C1CCN(C2CCC2)CC1
Result: -294

Ask: Next molecule: CCOc1ccccc1NC(=O)c1cccc(NC(=O)CC(c2ccccc2)c2ccccc2)c1
Result: -39.4

Ask: Next molecule: CN1CCN(S(=O)(=O)c2ccc(SCCOc3ccccc3)nc2)CC1
Result: 4

Ask: Next molecule: COc1ccc(CN2C3CCCC2CC(NC(=O)Nc2ccccc2C)C3)cc1 (configuration not stated)
Result: -143

Ask: Next molecule: COc1ccc(CN2C3CCCC2CC(NC(=O)Nc2ccccc2)C3)cc1 (configuration not stated)
Result: -365

Ask: Next molecule: COc1ccc(OC)c(S(=O)(=O)N2CCC(C(=O)Nc3cccc(C(F)(F)F)c3)CC2)c1
Result: -60.9

* * *

- System: intestinal alkaline phosphatase [Mus musculus]
- assaySummary: mouse intestinal phosphatase enzyme activation – biochemical, luminescence, single concentration, confirmation (AID 434970)
- setupConditions: purified mouse IAP, CDP-Star luminescence, 30 min, at 10 µM
The whole screen tested about 11,000 compounds, of which about 310 (2.8%) were called active. Rule as the data show it: active = activity change below about -85%; inactive = the rest. The list comes from a sample in which actives are over-represented; it also holds close analogues and randomly drawn compounds.
The reply should name one outcome from y for active, n for inactive

Worked examples follow.
                                   molecule  discretelabel
0  CCCCN1CCS(=O)(=O)N(Cc2ccccc2Br)CC(C(=O)OC)C1 (stereo unspecified)              n
1     Cn1nc(OC(=O)Nc2cccc(Cl)c2)cc1C(F)(F)F              y
2  CCOC(=O)C1=CN(Cc2cccc(-c3ccc4c(c3)OCO4)c2)S(=O)(=O)N(C)C1C (stereo unspecified)              n
3      O=C(CCl)Oc1ccc2occ(C(=O)c3cccs3)c2c1              n
4                 CC(=O)Nc1ccc(-n2cnnn2)cc1              n
5  Cn1cc(NC(=O)Nc2ccc(C(F)(F)F)cc2)c(C(F)(F)F)n1              n
6  O=C(O)CC(c1cccc(Cl)c1)n1cccc1 (stereo unspecified)              n
7             O=C(NCCCn1ccnc1)Nc1cccc(Cl)c1              n

Ask: Would you mind telling me which call this test gave Cc1cc(C)cc(NC(=O)Nc2ccc(-n3ccc(C(F)(F)F)n3)cc2)c1 ?
Result: y

Ask: Next molecule: Cn1nc(C(=O)Nc2cccc(C(F)(F)F)c2)ccc1=O
Result: n

Ask: Next molecule: O=S1(=O)c2ccccc2OC(COCc2ccccc2)CN1Cc1ccccc1 (stereo unspecified)
Result: n

* * *

- System: intestinal alkaline phosphatase [Mus musculus]
- assaySummary: mouse intestinal phosphatase enzyme activation – biochemical, luminescence, single concentration, confirmation (AID 434970)
- setupConditions: purified mouse IAP, CDP-Star luminescence, 30 min, at 10 µM; measured here: IAP activation factor, stronger effect = higher value
Screen size: about 11,000 compounds; about 310 (2.8%) were called active. This is one part of a sample in which actives are shown more often than they occur.
Answer No if activation factor is under 1, and Yes if it is 1 or more.

Worked examples follow.
>>> print(df.to_string())
                                   compound  discretelabel
0  CC[C@]12c3[nH]c4cc(CCC(=O)N(C)C)ccc4c3CCN1C(=O)[C@@H](CC(=O)NCCN1CCOCC1)C[C@@H]2C(=O)N1CCN(C(=O)C2CC2)CC1            Yes
1  Cc1ccc(C(=O)Nc2nncs2)cc1S(=O)(=O)N1CCOCC1             No
2  CCOC(=O)C1=CN(CC)S(=O)(=O)NC1c1ccc(F)c(Cl)c1 (stereo not given)            Yes

For the next question, use this compound.
Ask: Kindly determine if activation factor recorded for CCCc1n[nH]c2c1/C(=N\O)CCC2 is above or exactly 1.
Result: Yes

* * *

- Tested on: intestinal alkaline phosphatase [Mus musculus]
- assaySummary: mouse intestinal phosphatase enzyme activation – biochemical, luminescence, single concentration, confirmation (AID 434970)
- setupConditions: purified mouse IAP, CDP-Star luminescence, 30 min, at 10 µM; stronger effect = lower value
In all, about 11,000 compounds went through this assay and about 310 (2.8%) were called active. Shown is part of a subset that was picked to be rich in actives.
Listed next: entries and their corresponding activity change, negative = activation.
Number in %, nothing else.

Recorded activity change, negative = activation, per entry:
In [3]: df
Out[3]:
                                   compound                        quantitymeasured  unitofmeasurement  observed
0  COc1ccc(S(=O)(=O)Nc2cc(C(C)C)c(O)cc2C)cc1  activity change, negative = activation                  %      0.45
1  O=C(CCCOc1ccccc1)Nc1nnc(C2CCCO2)s1 (stereo not given)  activity change, negative = activation                  %     -1.15
2  CC1(C)CC(=O)C2=C(C1)N=c1s/c(=C/c3ccc(F)c(F)c3)c(=O)n1C2c1ccc(F)cc1 (stereo not given)  activity change, negative = activation                  %      14.4
3              O=C(CC1CCCC1)Nc1nnc(C2CC2)s1  activity change, negative = activation                  %      6.65
4  CCOC(=O)C1=CN(Cc2cccc(F)c2)S(=O)(=O)NC1c1ccc(Br)cc1F (stereo not given)  activity change, negative = activation                  %      7.85
5  COc1ccc(C2CC(c3cccc(F)c3)=NN2c2ccc(S(N)(=O)=O)cc2)cc1 (stereo not given)  activity change, negative = activation                  %     -67.2

Ask: For the compound CC[C@@H]1C(c2cccc(C)c2)=NN(c2ccccc2)[C@H]1C(=O)N1CCOC1=O , what activity change, negative = activation is on record?
Result: -14.2

Ask: Next compound: O=c1ccc(NS(=O)(=O)c2ccc(Cl)cc2)cn1Cc1ccc(Cl)c(Cl)c1
Result: 5.2

Ask: Next compound: COc1ccc(C2CC(c3ccccc3Br)=NN2c2ccc(S(N)(=O)=O)cc2)cc1 (stereo not given)
Result: -26.8

Ask: Next compound: COc1ccc(C2/C=C\CN(C(=O)c3ccccc3)CC(=O)N2Cc2cccc(F)c2)cc1 (stereo not given)
Result: -1.35
